TESTED_ON: His6-AspH315–758 (human aspartate/asparagine-β-hydroxylase, AspH) (Homo sapiens)
Construct: N-Terminally His6-tagged human AspH315–758 (His6-AspH315–758) was produced in E. coli BL21 (DE3) cells; made in house; host or cells: E. coli BL21 (DE3), pET-28a(+) vector
Sequence (Q12797 315-758): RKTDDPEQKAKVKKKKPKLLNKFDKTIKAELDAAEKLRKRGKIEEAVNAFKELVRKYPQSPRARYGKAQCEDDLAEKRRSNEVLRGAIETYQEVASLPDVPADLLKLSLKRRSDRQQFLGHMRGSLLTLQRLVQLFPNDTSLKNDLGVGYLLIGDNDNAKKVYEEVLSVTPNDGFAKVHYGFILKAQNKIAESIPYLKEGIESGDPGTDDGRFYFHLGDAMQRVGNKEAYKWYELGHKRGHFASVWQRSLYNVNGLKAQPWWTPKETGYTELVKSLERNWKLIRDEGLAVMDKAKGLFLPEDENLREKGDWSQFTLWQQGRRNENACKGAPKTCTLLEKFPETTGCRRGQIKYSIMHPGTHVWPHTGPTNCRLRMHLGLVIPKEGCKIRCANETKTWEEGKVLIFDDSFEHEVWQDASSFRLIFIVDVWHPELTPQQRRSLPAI
METHOD_DESCRIPTION: SPE-MS AspH inhibition assay (LOPAC screen at fixed 20 μM and IC50 dose-response), hydroxylation of cyclic peptide hFX-CP101–119
Type: biochemical
CONDITION_DETAILS: LOPAC compound at 20uM, plate 2; normalised to DMSO and 2,4-PDCA controls
# maps each entry to its Plate 2 (% inhibition)
MEASURE: Plate 2 (% inhibition)

COC(=O)C1=C(C)NC(C)=C(C(=O)O[C@@H]2CCCN(Cc3ccccc3)C2)[C@@H]1c1cccc([N+](=O)[O-])c1.Cl (racemic) [Benidipine hydrochloride]; 13.51%
CNCC(O)c1ccc(O)c(O)c1.Cl (racemic) [(±)-Epinephrine hydrochloride]; 88.94%
COc1cc2c(CCNC(C)=O)c[nH]c2cc1O [6-Hydroxymelatonin]; -2.79%
Br.CCCN(CCC)C1CCc2ccc(O)cc2C1 (racemic) [(±)-7-Hydroxy-DPAT hydrobromide]; -5.57%
Cl.O[Si](CCCN1CCCCC1)(c1ccc(F)cc1)C1CCCCC1 (centres unmarked); -14.81%
Nc1ccn([C@H]2CC[C@@H](CO)O2)c(=O)n1 [2,3-dideoxycytidine]; -5.15%
CS(=O)(=O)O.Cc1c(O)cccc1C(=O)N[C@@H](CSc1ccccc1)[C@H](O)CN1C[C@H]2CCCC[C@H]2C[C@H]1C(=O)NC(C)(C)C.O [Nelfinavir mesylate hydrate]; 9.02%
C[C@@](Cc1ccc(O)c(O)c1)(NN)C(=O)O [S-(-)-Carbidopa]; 84.92%
CC(=O)O[C@H]1C[C@@]2(C)[C@@H](C[C@@H](O)[C@H]3[C@@]4(C)CC[C@@H](O)[C@@H](C)[C@@H]4CC[C@@]32C)/C1=C(\CCC=C(C)C)C(=O)[O-].[Na+] [Fusidic acid sodium]; -13.68%
CC[n+]1c(/C=C/C=C2/N(C)c3ccccc3C2(C)C)sc2ccccc21.[I-] [AC-93253 iodide]; -16.93%
OC[C@H]1OC(n2cnc3ccccc32)[C@H](O)[C@@H]1O (stereo partly drawn) [D-ribofuranosylbenzimidazole]; -5.77%
CCCCCCCCCCCCCCC[C@H](O)[C@H](N)CO (racemic) [DL-erythro-Dihydrosphingosine]; -80.23%
COc1ccc2[n-]c([S@@+]([O-])Cc3ncc(C)c(OC)c3C)nc2c1.COc1ccc2[n-]c([S@@+]([O-])Cc3ncc(C)c(OC)c3C)nc2c1.O.O.[Mg+2] [Esomeprazole magnesium dihydrate]; -16.62%
CCN(CC)C(=O)c1ccc(O)c(OC)c1 [Vanillic acid diethylamide]; 2.19%
